- Test description: Toxicity, mouse, s.c.
- Format: in vivo
- Experimental setup: in vivo, sc; mouse s.c.; LD50 / writhing ED50; read-out: Index LD50/ED50
The reader will find reported selectivity ratio values listed item by item below.

{"Compound": "CC(C)=CCN1CCC2(C)c3cc(O)ccc3CC1C2C (stereo not shown)", "selectivity ratio": 157}
{"Compound": "Cc1ccoc1CN1CC[C@@]2(C)c3cc(O)ccc3C[C@@H]1[C@@H]2C (relative stereo)", "selectivity ratio": 508}
{"Compound": "C[C@H]1[C@H]2Cc3ccc(O)cc3[C@]1(C)CCN2Cc1ccco1 (relative stereo)", "selectivity ratio": 16}
{"Compound": "C[C@H]1[C@H]2Cc3ccc(O)cc3[C@]1(C)CCN2Cc1ccno1 (relative stereo)", "selectivity ratio": 1800}

###

- Test description: Toxicity, mouse, s.c.
- Format: in vivo
- Experimental setup: in vivo, sc; mouse
The reader will find reported LD50 values listed item by item below.

{"Compound": "C[C@H]1[C@H]2Cc3ccc(O)cc3[C@]1(C)CCN2Cc1ccco1 (relative stereo)", "LD50, mg/kg": 292}
{"Compound": "C[C@H]1[C@H]2Cc3ccc(O)cc3[C@]1(C)CCN2Cc1ccno1 (relative stereo) [Example 1]", "LD50, mg/kg": 1080}
{"Compound": "CC(C)=CCN1CCC2(C)c3cc(O)ccc3CC1C2C (stereo not shown) [Pentazocine]", "LD50, mg/kg": 220}
{"Compound": "Cc1ccoc1CN1CC[C@@]2(C)c3cc(O)ccc3C[C@@H]1[C@@H]2C (relative stereo)", "LD50, mg/kg": 305}
